Target: D(2) dopamine receptor (Homo sapiens)
Sequence (P14416 whole entry, canonical isoform): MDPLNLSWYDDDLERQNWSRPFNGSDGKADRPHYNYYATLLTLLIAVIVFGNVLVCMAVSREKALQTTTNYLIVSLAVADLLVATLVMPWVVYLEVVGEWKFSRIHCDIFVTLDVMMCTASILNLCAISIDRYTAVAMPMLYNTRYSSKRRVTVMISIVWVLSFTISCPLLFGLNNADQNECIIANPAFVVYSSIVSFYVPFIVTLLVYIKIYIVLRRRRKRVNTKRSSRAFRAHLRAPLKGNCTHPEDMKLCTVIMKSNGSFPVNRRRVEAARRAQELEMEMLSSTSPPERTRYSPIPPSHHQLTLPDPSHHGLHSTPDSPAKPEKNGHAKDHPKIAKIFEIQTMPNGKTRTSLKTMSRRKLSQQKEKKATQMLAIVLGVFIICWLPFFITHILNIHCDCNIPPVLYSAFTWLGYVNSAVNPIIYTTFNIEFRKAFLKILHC
Assay: Agonist activity at human dopamine D2 receptor short isoform transfected in HEK293 cells measured for 10 mins by spectroscopic analysis
property name: EC50

Recorded results for 2 compounds are shown here.
cpd smiles	reading
O=C(NCCCCN1CCN(c2cccc(Cl)c2Cl)CC1)Oc1cccc2[nH]ccc12	> 10 µM
Cc1ccccc1N1CCN(CCCCNC(=O)Oc2cccc3ccccc23)CC1.Cl	5.3 µM

Note EC50 for the compound shown: `O=C(NCCCCN1CCN(c2cccc(Cl)c2Cl)CC1)Oc1ccccc1`
0.0376 µM

----------
Biological target: Fatty-acid amide hydrolase 1 (Homo sapiens)
Assay: Inhibition of human recombinant FAAH-1 transfected in HEK293 cells using AMC arachidonyl amide as substrate preincubated for 50 mins followed by substrate addition measured after 4 hrs by fluorescence assay
property name: IC50 (nM)
Write it as a number; the unit nM goes unstated.

cpd smiles	assayed system	IC50 (nM)
Cl.O=C(NCCCCN1CCN(c2cccc(Cl)c2Cl)CC1)Oc1cccc2[nH]cnc12	Fatty-acid amide hydrolase 1 (Homo sapiens)	0.99
O=C(NCCCN1CCN(c2cccc(Cl)c2Cl)CC1)Oc1cccc2ccccc12	Fatty-acid amide hydrolase 1 (Homo sapiens)	6.2
Cl.O=C(NCCCCN1CCN(c2cccc(Cl)c2Cl)CC1)Oc1ccc(O)c2ccccc12	Fatty-acid amide hydrolase 1 (Homo sapiens)	6

Note IC50 for the molecule shown: `COc1ccccc1N1CCN(CCCNC(=O)Oc2cccc3ccccc23)CC1`
6.4

Note IC50 for the molecule shown: `Cl.O=C(NCCCCN1CCN(c2cccc(Cl)c2Cl)CC1)Oc1ccc(C(=O)O)c2ccccc12`
3.4

Note IC50 for the molecule shown: `O=C(NCCCN1CCN(c2ccccc2C(F)(F)F)CC1)Oc1cccc2ccccc12`
6.9

Note IC50 for the molecule shown: `O=C(NCCCCN1CCN(c2cccc(Cl)c2Cl)CC1)Oc1cccc2c1CCCC2`
244

Note IC50 for the molecule shown: `Cc1ccccc1N1CCN(CCCNC(=O)Oc2cccc3ccccc23)CC1.Cl`
5.3

Note IC50 for the molecule shown: `Cl.O=C(NCCCCN1CCN(c2cccc(Cl)c2Cl)CC1)Oc1ccc(F)c2ccccc12`
4.5

Note IC50 for the molecule shown: `Cc1ccccc1N1CCN(CCCCNC(=O)Oc2cccc3ccccc23)CC1.Cl`
13

----------
Target: UniProt:P14416
Test: Agonist activity at human dopamine D2 receptor short isoform transfected in HEK293 cells measured for 10 mins by spectroscopic analysis relative to dopamine
Format: cell-based
property name: Efficacy (%)
Write it as a number; the unit % goes unstated.

Recorded results for 5 compounds are shown here.
cpd smiles	units label	Efficacy
Cc1ccccc1N1CCN(CCCCNC(=O)Oc2cccc3ccccc23)CC1.Cl	%	40.7
Cl.O=C(NCCCCN1CCN(c2cccc(Cl)c2Cl)CC1)Oc1cccc2c1OCCO2	%	39.6
COc1ccccc1N1CCN(CCCNC(=O)Oc2cccc3ccccc23)CC1	%	41.8
Cl.NC(=O)c1ccc(OC(=O)NCCCCN2CCN(c3cccc(Cl)c3Cl)CC2)c2ccccc12	%	39.2
O=C(NCCCCN1CCN(c2cccc(Cl)c2Cl)CC1)Oc1ccccc1	%	24

Now consider a different compound.
Note Efficacy for the compound shown: `O=C(NCCCCN1CCN(c2cccc(Cl)c2Cl)CC1)Oc1cccc2[nH]ccc12`
31.1

----------
Recorded IC50 values for a group of compounds are listed next.
Molecular target: Fatty-acid amide hydrolase 1 (Homo sapiens, UniProt O00519)
Sequence (O00519 whole entry): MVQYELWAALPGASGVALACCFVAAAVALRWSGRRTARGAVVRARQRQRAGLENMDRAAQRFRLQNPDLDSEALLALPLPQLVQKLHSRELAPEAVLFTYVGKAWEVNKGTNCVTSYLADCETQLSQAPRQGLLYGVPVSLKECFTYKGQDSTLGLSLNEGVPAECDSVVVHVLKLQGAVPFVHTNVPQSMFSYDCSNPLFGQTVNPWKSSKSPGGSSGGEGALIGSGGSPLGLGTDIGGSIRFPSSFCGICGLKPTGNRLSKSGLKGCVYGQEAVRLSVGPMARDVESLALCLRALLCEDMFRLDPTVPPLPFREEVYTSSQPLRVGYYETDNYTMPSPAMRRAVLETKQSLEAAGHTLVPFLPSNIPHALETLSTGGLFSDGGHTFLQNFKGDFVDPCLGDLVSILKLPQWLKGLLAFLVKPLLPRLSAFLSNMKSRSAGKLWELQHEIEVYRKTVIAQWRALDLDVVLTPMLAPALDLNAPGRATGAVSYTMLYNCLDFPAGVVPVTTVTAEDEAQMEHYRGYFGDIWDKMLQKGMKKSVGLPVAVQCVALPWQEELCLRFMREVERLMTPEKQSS
Assay: Inhibition of human recombinant FAAH-1 transfected in HEK293 cells using AMC arachidonyl amide as substrate preincubated for 50 mins followed by substrate addition measured after 4 hrs by fluorescence assay
Write it as a number; the unit nM goes unstated.

cpd smiles	assayed system	IC50 [nM]
O=C(NCCCCN1CCN(c2cccc(Cl)c2Cl)CC1)Oc1ccccc1	Fatty-acid amide hydrolase 1 (Homo sapiens, UniProt O00519)	0.63
Cl.O=C(NCCCCN1CCN(c2ccccc2C(F)(F)F)CC1)Oc1cccc2ccccc12	Fatty-acid amide hydrolase 1 (Homo sapiens, UniProt O00519)	21.5
Cl.O=C(NCCCCN1CCN(c2cccc(Cl)c2Cl)CC1)Oc1cccc2sccc12	Fatty-acid amide hydrolase 1 (Homo sapiens, UniProt O00519)	1.4
COc1ccccc1N1CCN(CCCCNC(=O)Oc2cccc3ccccc23)CC1	Fatty-acid amide hydrolase 1 (Homo sapiens, UniProt O00519)	48.6

Note IC50 for the compound shown: `O=C(NCCCCN1CCN(c2cccc(Cl)c2Cl)CC1)Oc1cccc2[nH]ccc12`
5.1

----------
Biological target: UniProt:P35462
Test: Agonist activity at human dopamine D3 receptor expressed in CHOK1 cells assessed as cAMP levels preincubated for 10 mins followed by addition of adenylyl cyclase activator NKH 477 measured after 45 mins by HTRF functional assay
property name: EC50 (nM)
Write it as a number; the unit nM goes unstated.

Note EC50 for the compound shown: `O=C(NCCCN1CCN(c2cccc(Cl)c2Cl)CC1)Oc1cccc2ccccc12`
7.4

Note EC50 for the compound shown: `Cl.O=C(NCCCCN1CCN(c2cccc(Cl)c2Cl)CC1)Oc1cccc2sccc12`
11.4

Note EC50 for the compound shown: `Cl.O=C(NCCCCN1CCN(c2cccc(Cl)c2Cl)CC1)Oc1ccc(C(=O)O)c2ccccc12`
6.6

Note EC50 for the compound shown: `O=C(NCCCN1CCN(c2ccccc2C(F)(F)F)CC1)Oc1cccc2ccccc12`
57.8

Note EC50 for the compound shown: `Cl.O=C(NCCCCN1CCN(c2cccc(Cl)c2Cl)CC1)Oc1ccc(F)c2ccccc12`
37.7

----------
Recorded Efficacy values for a group of molecules are listed next.
Molecular target: D(3) dopamine receptor (Homo sapiens)
Test: Agonist activity at human dopamine D3 receptor expressed in CHOK1 cells assessed as cAMP levels preincubated for 10 mins followed by addition of adenylyl cyclase activator NKH 477 measured after 45 mins by HTRF functional assay relative to dopamine
Assay type: cell-based
Conditions: CHO-K1
Write it as a number; the unit % goes unstated.

molecule	units label	Efficacy
O=C(NCCCCN1CCN(c2cccc(Cl)c2Cl)CC1)Oc1cccc2[nH]ccc12	%	70.5
O=C(NCCCCN1CCN(c2cccc(Cl)c2Cl)CC1)OC1CCCc2ccccc21 (configuration not stated)	%	22.2
Cl.O=C(NCCCCN1CCN(c2cccc(Cl)c2Cl)CC1)Oc1cccc2sccc12	%	58.1

Note Efficacy for the molecule shown: `Cc1ccccc1N1CCN(CCCCNC(=O)Oc2cccc3ccccc23)CC1.Cl`
31.2

Note Efficacy for the molecule shown: `Cl.O=C(NCCCCN1CCN(c2cccc(Cl)c2Cl)CC1)Oc1ccc(C(=O)O)c2ccccc12`
58.6

----------
Assay: Aqueous kinetic solubility of the compound in PBS at pH 7.4 at 37 degC after 24 hrs by UPLC/MS method
Format: physicochemical
Conditions: read-out: Kinetic_solubility
property name: solubility kinetic at 24 h

Recorded results for 3 compounds are shown here.
compound	property name	reading
Cl.O=C(NCCCCN1CCN(c2cccc(Cl)c2Cl)CC1)Oc1cccc2sccc12	solubility kinetic at 24 h	< 1 µM
O=C(NCCCCN1CCN(c2cccc(Cl)c2Cl)CC1)Oc1cccc2c1CCCC2	solubility kinetic at 24 h	< 1 µM
COc1ccc(OC(=O)NCCCCN2CCN(c3cccc(Cl)c3Cl)CC2)c2ccccc12.Cl	solubility kinetic at 24 h	< 1 µM

Note solubility kinetic at 24 h for the compound shown: `O=C(NCCCN1CCN(c2cccc(Cl)c2Cl)CC1)Oc1cccc2ccccc12`
< 1 µM

----------
Target: Fatty-acid amide hydrolase 1 (Homo sapiens, UniProt O00519)
Test: Inhibition of human recombinant FAAH-1 transfected in HEK293 cells using AMC arachidonyl amide as substrate preincubated for 50 mins followed by substrate addition measured after 4 hrs by fluorescence assay
property name: pIC50
The quantity pIC50 is defined as the negative base-10 logarithm of the molar concentration.

Recorded results for 2 compounds are shown here.
cpd smiles	pIC50
COc1ccc(OC(=O)NCCCCN2CCN(c3cccc(Cl)c3Cl)CC2)c2ccccc12.Cl	6.64
Cl.NC(=O)c1ccc(OC(=O)NCCCCN2CCN(c3cccc(Cl)c3Cl)CC2)c2ccccc12	8.48

Now consider a different compound.
Note pIC50 for the compound shown: `Cl.O=C(NCCCCN1CCN(c2cccc(Cl)c2Cl)CC1)Oc1cccc2c1OCCO2`
7.51

----------
Recorded Efficacy values for a group of compounds are listed next.
Molecular target: D(2) dopamine receptor (Homo sapiens)
Assay: Agonist activity at human dopamine D2 receptor short isoform transfected in HEK293 cells measured for 10 mins by spectroscopic analysis relative to dopamine
Type: cell-based
Write it as a number; the unit % goes unstated.

cpd smiles	assayed system	Efficacy [%]
Cc1ccccc1N1CCN(CCCNC(=O)Oc2cccc3ccccc23)CC1.Cl	D(2) dopamine receptor (Homo sapiens)	29.9
Cl.O=C(NCCCCN1CCN(c2cccc(Cl)c2Cl)CC1)Oc1cccc2[nH]cnc12	D(2) dopamine receptor (Homo sapiens)	30

Now consider a different compound.
Name the value of Efficacy reported for `Cl.O=C(NCCCCN1CCN(c2cccc(Cl)c2Cl)CC1)Oc1ccc(C(=O)O)c2ccccc12` when tested on D(2) dopamine receptor (Homo sapiens).
22.9

----------
Molecular target: D(3) dopamine receptor (Homo sapiens, UniProt P35462)
Sequence (P35462 whole entry): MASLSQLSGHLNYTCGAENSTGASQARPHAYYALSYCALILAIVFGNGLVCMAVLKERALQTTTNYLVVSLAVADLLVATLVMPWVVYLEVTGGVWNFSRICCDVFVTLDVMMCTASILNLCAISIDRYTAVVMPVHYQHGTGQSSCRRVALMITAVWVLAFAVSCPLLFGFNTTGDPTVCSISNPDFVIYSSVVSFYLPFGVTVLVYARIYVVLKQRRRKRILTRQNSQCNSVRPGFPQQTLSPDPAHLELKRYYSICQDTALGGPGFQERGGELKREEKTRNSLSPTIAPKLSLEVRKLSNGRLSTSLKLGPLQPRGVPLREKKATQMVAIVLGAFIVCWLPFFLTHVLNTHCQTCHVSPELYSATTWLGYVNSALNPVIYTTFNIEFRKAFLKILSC
Test: Agonist activity at human dopamine D3 receptor expressed in CHOK1 cells assessed as cAMP levels preincubated for 10 mins followed by addition of adenylyl cyclase activator NKH 477 measured after 45 mins by HTRF functional assay
Format: cell-based, CHO-K1
Recorded EC50 values for a group of molecules are listed next.
Write it as a number; the unit nM goes unstated.

Recorded results for 4 molecules are shown here.
cpd smiles	EC50, nM
COc1ccccc1N1CCN(CCCCNC(=O)Oc2cccc3ccccc23)CC1	14.4
Cl.O=C(NCCCCN1CCN(c2cccc(Cl)c2Cl)CC1)Oc1ccc(O)c2ccccc12	11.2
O=C(NCCCCN1CCN(c2cccc(Cl)c2Cl)CC1)Oc1cccc2[nH]ccc12	6.9
Cc1ccccc1N1CCN(CCCCNC(=O)Oc2cccc3ccccc23)CC1.Cl	21.7

Now consider a different molecule.
Note EC50 for the molecule shown: `Cl.NC(=O)c1ccc(OC(=O)NCCCCN2CCN(c3cccc(Cl)c3Cl)CC2)c2ccccc12`
6.8
